system: MCF-10A; settings: relative to VP-16
Listing of entries alongside the reported Potency compared to control VP-16.

[[record]]
compound = "COc1ccc([C@@H]2c3cc4c(c(OC)c3C[C@H]3COC(=O)[C@@H]32)OCO4)cc1OC"
measured_value = 0.341

[[record]]
compound = "COc1ccc([C@@H]2c3cc4c(cc3C[C@H]3COC(=O)[C@@H]32)OCO4)cc1OC"
measured_value = 0.507

[[record]]
compound = "COc1cc([C@@H]2c3cc4c(cc3[C@H](OC(C)=O)[C@H]3COC(=O)[C@H]23)OCO4)cc(OC)c1OC"
measured_value = 0.147


// query Identify the reported Potency compared to control VP-16 for the following entry. COc1cc(C2=C3C(=O)OC[C@@H]3[C@@H](OC(C)=O)c3cc4c(cc32)OCO4)cc(OC)c1OC [Compound 4, 7′,8′-dehydroacetylpodophyllotoxin]
// result 0.100

All figures here come from paper PMC6274026.
